Assay: Cmax in Beagle dog at 3 mg/kg, po
Type: ADME, organism-based, Canis lupus familiaris
Details: in vivo
Measurement Name: Cmax (ng/mL)
Just the number in ng/mL, nothing appended.

[ask] Please look up its Cmax: CC(C)c1ccc([C@](O)(c2cccc(-c3noc(C(C)(C)O)n3)c2)C2(C)CN(C)C2)cc1
[reply] 956

----------
Experiment: Solubility of the compound in aqueous medium at pH <[…]
Assay type: physicochemical
Measurement Name: solubility

[ask] Please look up its solubility: CC(C)c1ccc([C@](O)(c2cccc(-c3noc(C(C)(C)O)n3)c2)C2(C)CN(C)C2)cc1
[reply] > 100 mg/mL

----------
Assay: Clearance in Wistar rat at 3 mg/kg, iv
Assay type: ADME, organism-based
Conditions: in vivo
Measurement Name: clearance (L/h/kg)
Just the number in L/h/kg, nothing appended.

[ask] Please look up its clearance: CC(C)c1ccc([C@](O)(c2cccc(-c3noc(C(C)(C)O)n3)c2)C2(C)CN(C)C2)cc1
[reply] 6.6

----------
Experiment: Volume of distribution at steady state in Beagle dog at 1 mg/kg, iv
Assay type: ADME, organism-based, Canis lupus familiaris
Details: in vivo, read-out: Vdss
Measurement Name: Vd (L/kg)
Just the number in L/kg, nothing appended.

[ask] Please look up its Vd: CC(C)c1ccc([C@](O)(c2cccc(-c3noc(C(C)(C)O)n3)c2)C2(C)CN(C)C2)cc1
[reply] 11

----------
Assay: Oral bioavailability in Wistar rat at 100 mg/kg
Type: ADME, organism-based
Settings: in vivo
Measurement Name: bioavailability (%)
Just the number in %, nothing appended.

[ask] Please look up its bioavailability: CC(C)c1ccc([C@](O)(c2cccc(-c3noc(C(C)(C)O)n3)c2)C2(C)CN(C)C2)cc1
[reply] 19

----------
Test: Apparent permeability across apical to basolateral side in dog MDCK-II cells
Format: ADME, cell-based, Canis lupus familiaris
Measurement Name: Papp A→B (nm/s)
Just the number in nm/s, nothing appended.

[ask] Please look up its Papp A→B: CC(C)c1ccc([C@](O)(c2cccc(-c3noc(C(C)(C)O)n3)c2)C2(C)CN(C)C2)cc1
[reply] 3

----------
Assay: Tmax in Beagle dog at 1 mg/kg, iv
Type: ADME, organism-based, Canis lupus familiaris
Conditions: in vivo
Measurement Name: Tmax (min)
Just the number in min, nothing appended.

[ask] Please look up its Tmax: CC(C)c1ccc([C@](O)(c2cccc(-c3noc(C(C)(C)O)n3)c2)C2(C)CN(C)C2)cc1
[reply] 48

----------
Experiment: Tmax in Wistar rat at 50 mg/kg, po
Type: ADME, organism-based
Details: in vivo
Measurement Name: Tmax (min)
Just the number in min, nothing appended.

[ask] Please look up its Tmax: CN1CC(C)(C(O)(c2ccc(OC(F)(F)F)cc2)c2cncc(N3CCCC3)c2)C1 (racemic)
[reply] 30

----------
Assay: Tmax in C57BL/6 mouse at 15 mg/kg, po
Assay type: ADME, organism-based
Conditions: in vivo
Measurement Name: Tmax (min)
Just the number in min, nothing appended.

[ask] Please look up its Tmax: CN1CC(C)(C(O)(c2ccc(OC(F)(F)F)cc2)c2cncc(N3CCCC3)c2)C1 (racemic)
[reply] 30

----------
Assay: Intrinsic clearance in rat liver microsomes at 3 uM measured for 15 mins in presence of NADPH regenerating system by LC-MS/MS analysis
Type: ADME, Microsome
Conditions: read-out: CLH
Measurement Name: microsomal CLint at […], 3 µM (µL/min/mg)
Just the number in µL/min/mg, nothing appended.

[ask] Please look up its microsomal CLint at […], 3 µM: CN1CC(C)(C(O)(c2ccc(OC(F)(F)F)cc2)c2cncc(N3CCCC3)c2)C1 (racemic)
[reply] 450

----------
Assay: Half life in Wistar rat at 1 mg/kg, iv
Format: ADME, organism-based
Conditions: in vivo
Measurement Name: half-life (h)
Just the number in h, nothing appended.

[ask] Please look up its half-life: CN1CC(C)(C(O)(c2ccc(OC(F)(F)F)cc2)c2cncc(N3CCCC3)c2)C1 (racemic)
[reply] 2.4

----------
Test: Oral bioavailability in Beagle dog at 10 mg/kg
Type: ADME, organism-based, Canis lupus familiaris
Details: in vivo
Measurement Name: bioavailability

[ask] Please look up its bioavailability: CC(C)c1ccc([C@](O)(c2cccc(-c3noc(C(C)(C)O)n3)c2)C2(C)CN(C)C2)cc1
[reply] 95%

----------
Test: Cmax in Wistar rat at 100 mg/kg, po
Format: ADME, organism-based
Conditions: in vivo
Measurement Name: Cmax (ng/mL)
Just the number in ng/mL, nothing appended.

[ask] Please look up its Cmax: CC(C)c1ccc([C@](O)(c2cccc(-c3noc(C(C)(C)O)n3)c2)C2(C)CN(C)C2)cc1
[reply] 822

----------
Listing: IC50 at 72 h of selected molecules
Assay: Cytotoxicity against human HepG2 cells assessed as reduction in cell viability incubated for 72 hrs by CellTiter-Glo assay
Just the number in µM, nothing appended.

[ask] Please look up its IC50 at 72 h: CN1CC(C)(C(O)(c2ccc(Cl)cc2)c2ccc(OC(F)(F)F)cc2)C1 (racemic)
[reply] 9.4

[ask] Please look up its IC50 at 72 h: CC(C)COc1cccc(C(O)(c2ccc(OC(F)(F)F)cc2)C2(C)CN(C)C2)c1 (racemic)
[reply] 10

[ask] Please look up its IC50 at 72 h: CN1CC(C)(C(O)(c2ccc(OC(F)(F)F)cc2)c2cncc(N3CCCC3)c2)C1 (racemic)
[reply] 11

[ask] Please look up its IC50 at 72 h: CN1CC(C)(C(O)(c2ccc(OC(F)(F)F)cc2)c2cccc(N3CCCC3)c2)C1 (racemic)
[reply] 5

[ask] Please look up its IC50 at 72 h: CN1CC(C)(C(O)(c2ccc(OC(F)(F)F)cc2)c2ccnc(N3CCCC3)c2)C1 (racemic)
[reply] 9.2

----------
Assay: Clearance in Wistar rat at 1 mg/kg, iv
Type: ADME, organism-based
Details: in vivo
Measurement Name: clearance (mL/min/kg)
Just the number in mL/min/kg, nothing appended.

[ask] Please look up its clearance: CN1CC(C)(C(O)(c2ccc(OC(F)(F)F)cc2)c2cncc(N3CCCC3)c2)C1 (racemic)
[reply] 62

----------
Biological target: Voltage-gated inwardly rectifying potassium channel KCNH2 (Homo sapiens)
Sequence (Q12809 whole entry): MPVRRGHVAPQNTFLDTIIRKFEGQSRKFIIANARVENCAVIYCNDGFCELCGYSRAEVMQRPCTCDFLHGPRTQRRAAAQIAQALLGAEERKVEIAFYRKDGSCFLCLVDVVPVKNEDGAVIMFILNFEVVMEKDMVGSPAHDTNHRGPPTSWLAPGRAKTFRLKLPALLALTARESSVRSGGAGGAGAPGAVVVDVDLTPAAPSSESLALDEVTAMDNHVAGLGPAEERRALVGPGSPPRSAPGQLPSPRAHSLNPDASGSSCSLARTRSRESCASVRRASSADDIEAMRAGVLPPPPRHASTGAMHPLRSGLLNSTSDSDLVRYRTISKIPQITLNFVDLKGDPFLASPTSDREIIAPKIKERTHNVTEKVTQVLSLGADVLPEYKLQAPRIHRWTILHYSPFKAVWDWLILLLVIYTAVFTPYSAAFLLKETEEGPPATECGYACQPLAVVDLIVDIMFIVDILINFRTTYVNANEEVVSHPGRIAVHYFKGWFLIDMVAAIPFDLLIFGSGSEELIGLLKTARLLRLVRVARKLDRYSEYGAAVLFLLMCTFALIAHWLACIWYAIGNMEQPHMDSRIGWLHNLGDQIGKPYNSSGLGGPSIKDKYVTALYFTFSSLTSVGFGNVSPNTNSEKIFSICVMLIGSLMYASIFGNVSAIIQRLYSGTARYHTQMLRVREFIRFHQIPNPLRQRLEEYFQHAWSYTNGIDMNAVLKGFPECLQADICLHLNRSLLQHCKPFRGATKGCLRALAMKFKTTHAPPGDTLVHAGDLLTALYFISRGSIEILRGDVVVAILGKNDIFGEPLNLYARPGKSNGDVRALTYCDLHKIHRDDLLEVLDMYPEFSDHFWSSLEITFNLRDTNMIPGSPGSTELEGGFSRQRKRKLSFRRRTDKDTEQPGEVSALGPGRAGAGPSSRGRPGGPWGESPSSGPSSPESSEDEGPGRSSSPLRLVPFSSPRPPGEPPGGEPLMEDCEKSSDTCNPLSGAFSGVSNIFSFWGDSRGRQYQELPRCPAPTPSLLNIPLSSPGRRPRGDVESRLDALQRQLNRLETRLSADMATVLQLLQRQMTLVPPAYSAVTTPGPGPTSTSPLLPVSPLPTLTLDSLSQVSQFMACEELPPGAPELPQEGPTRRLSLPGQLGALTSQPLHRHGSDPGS
Experiment: Inhibition of hERG expressed in CHO cells assessed as inhibition of channel current at holding potential of -80 mV by QPatch assay
We label by threshold. Values of IC50 strictly beneath 0.6 µM are Fulfilled. Values of 0.6 µM and up are Not fulfilled.

[ask] Please state whether IC50 is below 0.6 µM for CN1CC(C(O)(c2ccccc2)c2ccc(OC(F)(F)F)cc2)C1 (configuration not stated)
[reply] Fulfilled

[ask] Please state whether IC50 is below 0.6 µM for CN1CC(CO)(C(O)(c2ccc(OC(F)(F)F)cc2)c2cccc(Cl)c2)C1 (racemic)
[reply] Fulfilled

[ask] Please state whether IC50 is below 0.6 µM for CN1CC(C(N)=O)(C(O)(c2ccc(OC(F)(F)F)cc2)c2cccc(Cl)c2)C1 (racemic)
[reply] Not fulfilled

[ask] Please state whether IC50 is below 0.6 µM for CC(=O)N1CC(C)(C(O)(c2ccccc2)c2ccc(OC(F)(F)F)cc2)C1 (configuration not stated)
[reply] Not fulfilled

[ask] Please state whether IC50 is below 0.6 µM for CN1CC(F)(C(O)(c2ccc(OC(F)(F)F)cc2)c2cccc(Cl)c2)C1 (racemic)
[reply] Fulfilled

[ask] Please state whether IC50 is below 0.6 µM for COc1cccc(C(O)(c2ccc(OC(F)(F)F)cc2)C2(C)CN(C)C2)c1 (racemic)
[reply] Fulfilled

[ask] Please state whether IC50 is below 0.6 µM for CN1CC(O)(C(O)(c2ccc(OC(F)(F)F)cc2)c2cccc(Cl)c2)C1 (racemic)
[reply] Not fulfilled
